# experimentalTarget: Ataxin-2 (Homo sapiens) (UniProt Q99700)
# Sequence (Q99700 whole entry): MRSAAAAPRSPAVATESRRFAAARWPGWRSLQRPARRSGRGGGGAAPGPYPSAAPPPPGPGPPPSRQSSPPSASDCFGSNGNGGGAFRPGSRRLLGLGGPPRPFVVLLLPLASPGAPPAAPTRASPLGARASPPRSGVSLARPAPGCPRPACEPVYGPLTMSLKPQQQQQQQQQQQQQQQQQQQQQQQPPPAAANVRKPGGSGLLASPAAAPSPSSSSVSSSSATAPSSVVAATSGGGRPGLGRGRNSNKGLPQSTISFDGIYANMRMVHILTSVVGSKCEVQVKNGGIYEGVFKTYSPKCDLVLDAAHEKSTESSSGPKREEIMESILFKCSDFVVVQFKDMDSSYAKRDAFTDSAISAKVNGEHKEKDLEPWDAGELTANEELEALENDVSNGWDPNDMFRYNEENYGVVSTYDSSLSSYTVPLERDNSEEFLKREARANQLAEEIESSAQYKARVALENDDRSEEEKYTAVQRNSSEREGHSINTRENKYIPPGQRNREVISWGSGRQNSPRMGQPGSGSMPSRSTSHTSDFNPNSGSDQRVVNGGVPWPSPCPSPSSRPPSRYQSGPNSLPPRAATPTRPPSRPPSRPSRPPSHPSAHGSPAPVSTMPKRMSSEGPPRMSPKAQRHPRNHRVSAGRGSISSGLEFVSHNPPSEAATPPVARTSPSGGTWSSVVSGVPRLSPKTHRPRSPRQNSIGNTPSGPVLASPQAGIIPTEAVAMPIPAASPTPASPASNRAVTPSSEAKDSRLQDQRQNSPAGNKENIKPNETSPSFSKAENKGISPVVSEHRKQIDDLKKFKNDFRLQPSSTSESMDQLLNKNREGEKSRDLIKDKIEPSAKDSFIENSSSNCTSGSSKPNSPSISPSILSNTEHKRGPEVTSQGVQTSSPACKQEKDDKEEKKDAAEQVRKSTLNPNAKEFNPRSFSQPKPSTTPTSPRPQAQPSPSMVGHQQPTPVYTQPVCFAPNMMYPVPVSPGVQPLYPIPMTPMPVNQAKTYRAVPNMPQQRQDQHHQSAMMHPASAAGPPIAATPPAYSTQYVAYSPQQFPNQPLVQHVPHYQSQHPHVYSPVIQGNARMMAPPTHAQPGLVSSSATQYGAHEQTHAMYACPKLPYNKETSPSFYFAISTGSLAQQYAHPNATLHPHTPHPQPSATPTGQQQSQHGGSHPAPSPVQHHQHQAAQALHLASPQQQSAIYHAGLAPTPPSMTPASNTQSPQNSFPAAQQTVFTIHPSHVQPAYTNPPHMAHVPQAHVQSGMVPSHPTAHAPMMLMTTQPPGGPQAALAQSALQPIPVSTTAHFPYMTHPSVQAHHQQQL
# procedureSummary: qHTS for Inhibitors of ATXN expression.
# Assay type: functional
Hit rate of the full screen: of about 400,000 compounds, about 2,100 (0.53%) were called active. Inconclusive results (about 14%) are left out. The rule behind the calls is not given here. The sample holds actives, similar compounds and a random draw of the others, so the mix is not that of the screen.
Hi there, use one of these labels in your reply, thanks! TRUE = active, FALSE = inactive

>>> classification("COc1ccc(N2CCN(CC(=O)NC(=O)NC(C)(C)C)CC2)cc1")
"FALSE"
>>> classification("CC(=O)Nc1ccc(NC(=O)CCC(=O)Oc2ccc(C)cc2)cc1")
"FALSE"
>>> classification("CCN(C(=O)c1cc2c(=O)n3ccccc3nc2s1)C1CCCCC1")
"FALSE"

Assay outcome for `CN(CC(=O)Nc1ccccc1Cl)C(=O)CN1C(=O)NC(c2ccccc2)(c2ccccc2)C1=O` : what was it?
FALSE

Assay outcome for `COCCCN=C(S)Nc1ccc2nc(N3CCOCC3)cc(C)c2c1` : what was it?
FALSE

Assay outcome for `c1cncc(-c2nnc(-c3cccnc3)nn2)c1` : what was it?
TRUE

Assay outcome for `O=C(O)c1cccc(CSc2nnc(-c3cccnc3)o2)c1` : what was it?
FALSE

Assay outcome for `O=C(/C=C/c1cc(Br)ccc1O)c1ccco1` : what was it?
TRUE

* * *

# experimentalTarget: Ataxin-2 (Homo sapiens)
# procedureSummary: qHTS for Inhibitors of ATXN expression.
# Type: functional
Among all 400,000 compounds or so, about 2,100 (0.53%) were called active. Another 14% or so got no clear call; they are omitted. No rule for the calls is given here. The full list was thinned out, with actives kept by preference.
Hi there, use one of these labels in your reply, thanks! active, inactive

>>> classification("OC(c1ccccc1)(c1nc(-c2cc(F)cc(F)c2)cs1)C(F)(F)F (stereo not drawn)")
"active"
>>> classification("CCc1ccc(C2c3c(-c4ccccc4O)n[nH]c3C(=O)N2Cc2cccnc2)cc1 (stereo not drawn)")
"active"
>>> classification("COc1cc(C(=O)N/N=C/c2sc(N3CCOCC3)nc2-c2ccccc2)cc(OC)c1OC")
"inactive"
>>> classification("CCCC(=O)NC(c1ccc(OC)cc1)c1ccc2cccnc2c1O (stereo not drawn)")
"inactive"
>>> classification("CC(C)Cc1nc2sc3c(SCC(N)=O)ncnc3c2c2c1CCC2")
"inactive"

Assay outcome for `O=C(Cc1ccccc1)Nc1cc([N+](=O)[O-])ccc1N1CCOCC1` : what was it?
inactive

Assay outcome for `CCOC(=O)c1ccc(N2C(=O)C=CC2=O)cc1` : what was it?
active

Assay outcome for `O=Cc1ccc(O)c2ncccc12` : what was it?
inactive

Assay outcome for `CCCc1cc(NCCOCCO)n2c(nc3ccccc32)c1C#N` : what was it?
inactive

Assay outcome for `O=C(CSc1ncccn1)N1CCc2ccccc2C1` : what was it?
inactive

Assay outcome for Cc1ccc2oc3c(c(=O)c2c1)C(c1ccc(O)cc1)N(CCCN(C)C)C3=O (stereo not drawn) : what was it?
inactive

Assay outcome for `CC1(C)CC(NC(=O)c2ccc(Cl)c(S(=O)(=O)N(Cc3ccccc3)c3ccccc3)c2)CC(C)(C)N1` : what was it?
active

Assay outcome for `Cc1cc(N2CCN(C(=O)Oc3ccc([N+](=O)[O-])cc3)CC2)c2ccccc2n1` : what was it?
active

Assay outcome for `COCCN(Cc1ccccc1)C(=O)c1ccc(C(=O)c2ccccc2)cc1` : what was it?
inactive

Assay outcome for `CCc1c(C)c2ccc(O)c(CN3CCCC3)c2oc1=O` : what was it?
inactive

Assay outcome for `Oc1ccc(CN2CCc3ccccc3C2)c2cccnc12` : what was it?
active

Assay outcome for `COc1ccc(OC)c([N+](=O)[O-])c1C(N)=O` : what was it?
inactive

Assay outcome for `O=C(NP(=O)(N1CCOCC1)N1CCOCC1)C1=C(N2CCOCC2)/C(=C\c2ccccc2)CC1` : what was it?
inactive

Assay outcome for `COc1cccc(N=Nc2ccc3cccnc3c2O)c1` : what was it?
active

* * *

# experimentalTarget: Ataxin-2 (Homo sapiens) (UniProt Q99700)
# procedureSummary: qHTS for Inhibitors of ATXN expression.
# Format: functional
Out of some 400,000 compounds screened, about 2,100 (0.53%) were called active. Another 14% or so got no clear call; they are omitted. The rule behind the calls is not given here. This excerpt belongs to a sample that is enriched for actives.
Hi there, use one of these labels in your reply, thanks! true (1) for active, false (0) for inactive

Previously resolved entries follow.
>>> classification("O=C(CN1C(=O)/C(=C\\c2ccccc2Cl)Oc2ccccc21)NCc1cccnc1")
"false (0)"
>>> classification("N#CC1=C(c2ccccc2)/C(=C/c2ccccc2)OC1=O")
"true (1)"
>>> classification("Cc1c(Cc2ccccc2)c(=O)oc2c(CN(C)C)c(O)c(Cl)cc12")
"false (0)"
>>> classification("O=C(NCc1ccccc1)c1cc2ccc(O)cc2oc1=O")
"false (0)"
>>> classification("O=C(NC1CCS(=O)(=O)C1)c1cc2c(=O)n3ccccc3nc2n1Cc1ccccc1 (stereo unspecified)")
"false (0)"
>>> classification("CCCCNC(=O)c1ccc(/C=C2\\Oc3ccccc3N(C)C2=O)cc1")
"false (0)"
>>> classification("O=C(CN1C(=O)/C(=C\\c2cccc(Br)c2)Oc2ccccc21)NCCCN1CCOCC1")
"true (1)"
>>> classification("C=CCn1c(N)c(C(=O)NCC2CCCO2)c2nc3ccccc3nc21 (stereo unspecified)")
"false (0)"

Assay outcome for `COC(=O)c1c(NC(=S)NC(=O)c2ccco2)sc2c1CCCC2` : what was it?
false (0)

Assay outcome for `Clc1ccc(-c2noc(/C=C/c3ccccc3)n2)cc1` : what was it?
false (0)

Assay outcome for `CCOc1cc(Br)c(/C=C2/C(=O)N(C)C(=S)N2CC(=O)OC)cc1OC` : what was it?
false (0)

* * *

# experimentalTarget: Ataxin-2 (Homo sapiens)
# procedureSummary: qHTS for Inhibitors of ATXN expression.
# Assay type: functional
In all, about 400,000 compounds went through this assay and about 2,100 (0.53%) were called active. Not shown: some 14% with an inconclusive outcome. No rule for the calls is given here. Only a selection was taken, and actives are over-represented in it overall.
Hi there, use one of these labels in your reply, thanks! label 1 = active, label 0 = inactive

Previously resolved entries follow.
>>> classification("O=C(c1cccn2c(=O)c3cc(Cl)ccc3nc12)N1CCOCC1")
"label 0"
>>> classification("O=C(Cc1ccccc1)Nc1ncccc1Cl")
"label 0"
>>> classification("CCCNC(=O)c1nnsc1[S+]([O-])c1ccc(Cl)cc1 (stereo unspecified)")
"label 1"
>>> classification("NC(=O)c1c(NC(=O)c2ccc(S(=O)(=O)N3CCOCC3)cc2)sc2c1CCCCC2")
"label 0"
>>> classification("N#CC1(Nc2cccc(Br)c2)C(=O)Nc2ccccc21 (stereo unspecified)")
"label 0"

API: the following record is the query input.
Assay outcome for O=C(c1nc2n(n1)C(c1ccc(Cl)cc1)C=C(c1ccccc1)N2)N1CCOCC1 (stereo unspecified) : what was it?
label 0

* * *

# experimentalTarget: Ataxin-2 (Homo sapiens) (UniProt Q99700)
# procedureSummary: qHTS for Inhibitors of ATXN expression.
# Assay type: functional
About 2,100 (0.53%) of roughly 400,000 compounds were called active. Another 14% or so got no clear call; they are omitted. What follows is part of a selection rich in actives, with near analogues and random picks from the rest.
assayEndpoint: Potency

Below are worked cases with known answers.
>>> endpointresult("O=C(c1ccccc1)c1ccc2cc(O)ccc2c1")
"inactive"
>>> endpointresult("N#CCCN(C(=O)CCl)c1cccc(Cl)c1")
"8.91 µM (active)"
>>> endpointresult("COc1cc(C(=O)N2C(=O)c3cccc(N)c3C2=O)cc(OC)c1OC")
"inactive"
>>> endpointresult("O=C(CCCn1c2ccccc2c(=O)c2ccccc21)Nc1cccc(Cl)c1")
"inactive"
>>> endpointresult("COc1cc(C(=O)O/N=C2/C=CC(=O)C(C)=C2C)cc(OC)c1OC")
"39.8 µM (active)"

Report value: Potency, system: Ataxin-2 (Homo sapiens) (UniProt Q99700), molecule: `O=C1OCCN1C(=O)[C@H]1[C@H](c2ccc(Cl)cc2)C(c2ccc(F)cc2)=NN1c1ccccc1`
inactive

* * *

# experimentalTarget: Ataxin-2 (Homo sapiens) (UniProt Q99700)
# procedureSummary: qHTS for Inhibitors of ATXN expression.
# Format: functional
The whole screen tested about 400,000 compounds, of which about 2,100 (0.53%) were called active. Another 14% or so got no clear call; they are omitted. This is one part of a sample in which actives are shown more often than they occur.
assayEndpoint: Potency

>>> endpointresult("COc1ccc(CNC(=O)CCC(=O)c2ccccc2)cc1")
"inactive"
>>> endpointresult("CCCc1cc(C(=O)Nc2cc(C)on2)no1")
"inactive"
>>> endpointresult("Cc1cccc(C)c1Nc1sc(C(=O)c2ccccc2)c(N)c1C(=O)Nc1ccc(F)cc1")
"28.2 µM (active)"
>>> endpointresult("CCCCOCCCNC(=O)C[C@@H]1C[C@@]2(C(=O)OC)CCCCC=C2N(Cc2ccc(Cl)cc2Cl)C1=O")
"39.8 µM (active)"
>>> endpointresult("CC(C)(C)c1ccc(OCC(=O)Nc2ccc3c4c(cccc24)C(=O)NC3=O)cc1")
"inactive"
>>> endpointresult("CC1CCCCC1NC(=O)COC(=O)c1c2c(nc3ccccc13)/C(=C/c1ccco1)CC2 (stereo not given)")
"inactive"
>>> endpointresult("COC(=O)[C@]12CCCCC=C1N(Cc1ccc(Cl)cc1Cl)C(=O)[C@H](CC(=O)N1CCN(C(=O)C3CC3)CC1)C2")
"35.5 µM (active)"
>>> endpointresult("O=C(Nc1nc2n(n1)C(c1ccc(F)cc1)C=C(c1ccccc1)N2)c1ccc(Cl)cc1 (stereo not given)")
"inactive"

Report value: Potency, system: Ataxin-2 (Homo sapiens) (UniProt Q99700), molecule: `COCCCNC(=O)CN1C(=O)c2cccc3cccc1c23`
inactive

Report value: Potency, system: Ataxin-2 (Homo sapiens) (UniProt Q99700), molecule: `O=C(COC(=O)c1ccc(Cl)nc1)Nc1ccc2c(c1)CCC2`
inactive
